- Tested on: pTau
- experiment summary: pTau assay (method not described)
- Format: cell-based
- particulars: read-out: pTau
pIC50: −log10 of the molar value.
Where pIC50 equals or exceeds 6, the correct label is Y; where it does not, the label is N.

{"columns": ["compound", "system name", "assigned label"],
 "data": [
  ["O=C(Nc1cnccc1-c1cc2ccccc2o1)c1ccnc(NC(=O)C2CC2)c1 [Example 95]", "pTau", "Y"],
  ["CC(C)C(=O)Nc1cc(C(=O)Nc2cncc(-c3cccc(F)c3F)c2)ccn1 [Example 194]", "pTau", "Y"],
  ["O=C(Nc1ccc(-c2ccccc2)nc1)c1ccnc(NC(=O)C2CC2)c1 [Example 10]", "pTau", "N"]
]}

====

- Test system: pTau
- experiment summary: pTau assay (method not described)
- Format: cell-based
- particulars: read-out: pTau
recorded metric: log10 of IC50 (log10 of the value in nM)

{"columns": ["compound", "log10 of IC50"],
 "data": [
  ["O=C(Nc1cncc2ccccc12)c1ccnc(NC(=O)C2CCCC2)c1 [Example 228]", 2.11],
  ["O=C(Nc1cncc(-c2cccc3[nH]ccc23)c1)c1ccnc(NC(=O)C2CC2)c1 [Example 147]", 2.98],
  ["CCOc1ccncc1NC(=O)c1ccnc(NC(=O)C2CCC2)c1 [Example 211]", 1.86],
  ["O=C(Nc1cnccc1N1CCCCC1)c1ccnc(NC(=O)C2CC2)c1 [Example 50]", 1.36],
  ["O=C(Nc1cncc(-c2cccc(F)n2)c1)c1ccnc(NC(=O)C2CC2)c1 [Example 165]", 2.10],
  ["O=C(Nc1cnc(-c2ccccn2)s1)c1ccnc(NC(=O)C2CC2)c1 [Example 176]", 3.74],
  ["O=C(Nc1cncc(-c2ccccc2)c1)c1ccnc(NC(=O)C2CC(F)(F)C2)c1 [Example 214]", 2.69],
  ["CCOc1ccncc1NC(=O)c1ccnc(NC(=O)C2CCCC2)c1 [Example 226]", 1.49],
  ["O=C(Nc1cncc(-c2ccncc2)c1)c1ccnc(NC(=O)C2CC2)c1 [Example 106]", 2.51],
  ["O=C(Nc1cnccc1-c1cccnc1)c1ccnc(NC(=O)C2CC2)c1 [Example 32]", 3.51],
  ["CCCc1ccc(-c2ccncc2NC(=O)c2ccnc(NC(=O)C3CC3)c2)cc1 [Example 72]", 2.40],
  ["O=C(Nc1cnccc1-c1ccccc1)c1ccnc(NC(=O)[C@@H]2C[C@H]2c2ccccc2)c1 (relative stereo) [Example 99]", 3.65],
  ["O=C(Nc1cncc(-c2ccc(OC(F)(F)F)cc2)c1)c1ccnc(NC(=O)C2CC2)c1 [Example 120]", 3.73],
  ["O=C(Nc1cncc(Br)c1)c1ccnc(NC(=O)C2CC2)c1 [Example 15]", 2.79],
  ["O=C(Nc1cnccc1-c1cc(Br)cc(Br)c1)c1ccnc(NC(=O)C2CC2)c1 [Example 167]", 3.74],
  ["CC(C)C(=O)Nc1cc(C(=O)Nc2cnccc2OCCN2CCCC2)ccn1 [Example 188]", 3.34],
  ["O=C(Nc1cncc(-n2ccnc2)c1)c1ccnc(NC(=O)C2CC2)c1 [Example 119]", 2.61]
]}

====

# Lookup of reported IC50 keyed by entry
- system name: GSK3α (Homo sapiens, UniProt P49840)
- Sequence (P49840 whole entry, species assumed): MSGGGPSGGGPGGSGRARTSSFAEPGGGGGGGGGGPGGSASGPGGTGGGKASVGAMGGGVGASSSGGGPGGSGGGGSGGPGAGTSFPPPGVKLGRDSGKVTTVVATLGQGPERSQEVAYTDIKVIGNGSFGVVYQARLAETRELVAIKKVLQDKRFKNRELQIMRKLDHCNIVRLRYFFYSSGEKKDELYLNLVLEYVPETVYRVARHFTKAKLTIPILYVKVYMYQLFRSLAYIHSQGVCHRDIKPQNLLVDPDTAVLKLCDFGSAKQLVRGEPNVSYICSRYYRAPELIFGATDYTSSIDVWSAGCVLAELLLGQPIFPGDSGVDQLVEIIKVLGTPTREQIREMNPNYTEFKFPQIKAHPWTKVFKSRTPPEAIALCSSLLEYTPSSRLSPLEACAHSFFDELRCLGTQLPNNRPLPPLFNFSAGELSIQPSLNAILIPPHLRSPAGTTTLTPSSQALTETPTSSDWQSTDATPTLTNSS
- experiment summary: biochemical
recorded metric: IC50 (pM)

{"columns": ["compound", "measurement"],
 "data": [
  ["O=C(Nc1cnccc1-c1ccccc1)c1ccnc(NC(=O)C2CCCC2)c1 [Example 227]", 1400],
  ["O=C(Nc1cncc(-c2ccccc2)c1)c1ccnc(NC(=O)C2CC2)c1 [Example 104]", 2000],
  ["O=C(Nc1cnccc1-c1ccccc1)c1ccnc(NC(=O)[C@@H]2CC[C@@H](O)C2)c1 (relative stereo) [Example 230]", 680],
  ["O=C(Nc1cncc(-c2cccc(F)c2F)c1)c1ccnc(NC(=O)C2CCC(F)(F)C2)c1 (centres unmarked) [Example 235]", 600],
  ["CC(C)(O)c1ccncc1NC(=O)c1ccnc(NC(=O)C2CC2)c1 [Example 16]", 200]
]}

====

- system name: GSK3β (Homo sapiens)
- experiment summary: GSK3β kinase assay (Caliper LabChip3000, fluoresceinated peptide substrate)
- Format: biochemical
- particulars: first value of the cell; 250 pM enzyme, 20 uM ATP, 20 hours at room temperature; read-out: GSK3β/α (nM): GSK3β IC50
recorded metric: IC50

{"columns": ["compound", "recorded metric", "measurement"],
 "data": [
  ["Cc1cc(-c2ccncc2NC(=O)c2ccnc(NC(=O)C3CC3)c2)cs1 [Example 43]", "IC50", "2.8 nM"],
  ["CC(=O)c1ccccc1-c1cncc(NC(=O)c2ccnc(NC(=O)C3CC3)c2)c1 [Example 144]", "IC50", "55 nM"],
  ["O=C(Nc1cncc(Cc2ccccc2)c1)c1ccnc(NC(=O)C2CC2)c1 [Example 110]", "IC50", "73 nM"],
  ["CC(C)C(=O)Nc1cc(C(=O)Nc2cncc(-c3ccccc3Cl)c2)ccn1 [Example 195]", "IC50", "10 nM"],
  ["NC(=O)c1cnc(NC(=O)c2ccnc(NC(=O)C3CC3)c2)s1 [Example 183]", "IC50", "530 nM"],
  ["O=C(Nc1cncnc1N1CCC(F)(F)CC1)c1ccnc(NC(=O)C2CC2)c1 [Example 179]", "IC50", "160 nM"],
  ["O=C(Nc1cnccc1-c1cccnc1)c1ccnc(NC(=O)C2CC2)c1 [Example 32]", "IC50", "160 nM"],
  ["Cn1ccc(-c2cncc(NC(=O)c3ccnc(NC(=O)C4CC4)c3)c2)c1 [Example 151]", "IC50", "8.8 nM"],
  ["O=C(Nc1cncc(C2CC2)c1)c1ccnc(NC(=O)C2CC2)c1 [Example 22]", "IC50", "7.1 nM"]
]}

====

# Lookup of reported IC50 keyed by entry
- system name: GSK3β (Homo sapiens, UniProt P49841)
- Sequence (P49841 whole entry, species assumed): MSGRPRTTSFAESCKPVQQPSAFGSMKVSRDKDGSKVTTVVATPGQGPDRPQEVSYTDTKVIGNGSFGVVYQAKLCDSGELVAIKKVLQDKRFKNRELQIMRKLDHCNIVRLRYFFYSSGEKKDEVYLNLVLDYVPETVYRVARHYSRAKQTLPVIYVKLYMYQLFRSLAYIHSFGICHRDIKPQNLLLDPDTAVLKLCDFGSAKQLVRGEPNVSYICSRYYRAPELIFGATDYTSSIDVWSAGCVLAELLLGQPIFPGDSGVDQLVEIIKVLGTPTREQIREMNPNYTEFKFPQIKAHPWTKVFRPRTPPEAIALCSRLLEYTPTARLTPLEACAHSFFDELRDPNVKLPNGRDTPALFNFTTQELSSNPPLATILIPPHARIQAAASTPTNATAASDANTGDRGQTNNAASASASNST
- experiment summary: GSK3β kinase assay (Caliper LabChip3000, fluoresceinated peptide substrate)
- Type: biochemical
- particulars: first value of the cell; 250 pM enzyme, 20 uM ATP, 20 hours at room temperature; read-out: GSK3β/α (nM): GSK3β IC50

{"columns": ["compound", "IC50 (nM)"],
 "data": [
  ["CC(C)C(=O)Nc1cc(C(=O)Nc2cnccc2C(F)c2ccccc2)ccn1 (stereo not drawn)", 10],
  ["CC(C)C(=O)Nc1cc(C(=O)Nc2cnccc2N2CCC(F)(F)CC2)c(F)cn1", 3],
  ["O=C(Nc1cncc(-c2ccccn2)c1)c1ccnc(NC(=O)C2CC2)c1", 0.5],
  ["O=C(Nc1cncc(-c2cc(F)ccc2F)c1)c1ccnc(NC(=O)C2CCC(F)(F)C2)c1 (stereo not drawn)", 4.3],
  ["O=C(Nc1cnccc1-c1cc2ccccc2o1)c1ccnc(NC(=O)C2CC2)c1", 1.9],
  ["COc1ccnc(-c2ccccc2)c1NC(=O)c1ccnc(NC(=O)C2CC2)c1", 2.6],
  ["O=C(Nc1cncc(-c2ccccc2F)n1)c1ccnc(NC(=O)C2CC2)c1", 6.2],
  ["O=C(Nc1cnccc1-c1ccc(OC(F)(F)F)cc1F)c1ccnc(NC(=O)C2CC2)c1", 13],
  ["CC(C)C(=O)Nc1cc(C(=O)Nc2cncc(-c3cccc(F)c3F)c2)ccn1", 3.8],
  ["O=C(Nc1cncc(-c2cccc(Cl)c2F)c1)c1ccnc(NC(=O)C2CC2)c1", 13],
  ["O=C(Nc1cnc2ccccc2c1)c1ccnc(NC(=O)C2CC2)c1", 570],
  ["O=C(O)c1cncc(NC(=O)c2ccnc(NC(=O)C3CC3)c2)c1", 197],
  ["O=C(Nc1cncc2ccccc12)c1ccnc(NC(=O)C2CC2)c1", 7.2],
  ["CC(C)c1ccccc1-c1cncc(NC(=O)c2ccnc(NC(=O)C3CC3)c2)c1", 2.7],
  ["O=C(Nc1cnc(-c2ccccn2)s1)c1ccnc(NC(=O)C2CC2)c1", 650],
  ["O=C(Nc1cnccn1)c1ccnc(NC(=O)C2CC2)c1", 8.1],
  ["COc1cncc(NC(=O)c2ccnc(NC(=O)C3CC3)c2)c1", 13],
  ["O=C(Nc1cncc(-c2cccc(F)c2)c1)c1ccnc(NC(=O)C2CC2)c1", 2.5]
]}

====

- system name: GSK3α (Homo sapiens, UniProt P49840)
- experiment summary: biochemical
- particulars: second value of the cell; 250 pM enzyme, 20 uM ATP, 20 hours at room temperature; read-out: GSK3β/α (nM): GSK3α IC50
# Lookup of reported IC50 keyed by entry
recorded metric: IC50 (nM)

{"columns": ["molecule", "measurement units", "measurement"],
 "data": [
  ["O=C(Nc1cncc(-c2cccc(OC(F)F)c2)c1)c1ccnc(NC(=O)C2CC2)c1 [Example 157]", "nM", 3.3],
  ["O=C(Nc1cnccc1-c1ccccc1)c1ccnc(NC(=O)C2CC(Cl)C2)c1 (stereo not drawn) [Example 215]", "nM", 0.25],
  ["O=C(Nc1cnccc1N1CCOCC1)c1ccnc(NC(=O)C2CC2)c1 [Example 30]", "nM", 0.54],
  ["Cc1cccc2sc(NC(=O)c3ccnc(NC(=O)C4CC4)c3)nc12 [Example 184]", "nM", 170],
  ["O=C(Nc1cncc(C2CCCC2)c1)c1ccnc(NC(=O)C2CC2)c1 [Example 132]", "nM", 8],
  ["N#Cc1ccc(-c2cncc(NC(=O)c3ccnc(NC(=O)C4CC4)c3)c2)cc1 [Example 115]", "nM", 4.3],
  ["COC(=O)c1cncc(NC(=O)c2ccnc(NC(=O)C3CC3)c2)c1 [Example 101]", "nM", 13],
  ["NC(=O)c1cnc(NC(=O)c2ccnc(NC(=O)C3CC3)c2)s1 [Example 183]", "nM", 200],
  ["O=C(Nc1cncc(Br)c1)c1ccnc(NC(=O)C2CC2)c1 [Example 15]", "nM", 11],
  ["O=C(Nc1cncc(-c2ccccc2F)c1)c1ccnc(NC(=O)C2CCC(F)(F)C2)c1 (stereo not drawn) [Example 234]", "nM", 0.9],
  ["O=C(Nc1cncc(-c2ccncc2)c1)c1ccnc(NC(=O)C2CC2)c1 [Example 106]", "nM", 2.5],
  ["O=C(Nc1cncc(-c2ccccc2Cl)c1)c1ccnc(NC(=O)C2CCC(F)(F)C2)c1 (stereo not drawn) [Example 237]", "nM", 0.78],
  ["Cc1c(NC(=O)c2ccnc(NC(=O)C3CC3)c2)cnn1C [Example 175]", "nM", 33],
  ["O=C(Nc1cncc(C2CC2)c1)c1ccnc(NC(=O)C2CC2)c1 [Example 22]", "nM", 2.4],
  ["O=C(Nc1cncc2c1CCCC2)c1ccnc(NC(=O)C2CC2)c1 [Example 21]", "nM", 3.3],
  ["O=C(Nc1cnccc1-c1ccccc1)c1ccnc(NC(=O)[C@@H]2C[C@H]2c2ccccc2)c1 (relative stereo) [Example 99]", "nM", 24],
  ["O=C(Nc1cnccc1-c1ccc(C(F)(F)F)cc1F)c1ccnc(NC(=O)C2CC2)c1 [Example 82]", "nM", 4],
  ["O=C(Nc1cncc(-c2cccc3cccnc23)c1)c1ccnc(NC(=O)C2CC2)c1 [Example 143]", "nM", 35]
]}
